Data credit: paper PMC5912465

- Test target: T1, P672 with residues Val-1—Thr-16 truncated (Rhipicephalus pulchellus, UniProt L7MC74 38-125)
- T1 sequence: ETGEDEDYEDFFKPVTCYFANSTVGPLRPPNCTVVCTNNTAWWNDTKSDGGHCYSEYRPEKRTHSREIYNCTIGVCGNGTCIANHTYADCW
- Method summary: BLI
- Protocol conditions: both partners purified
Measure name: pKd
Please treat pKd as minus the base-10 logarithm of the molar concentration.

**Q:** Could you share which pKd value was measured for CCL8 (human chemokine panel) (ligand, UniProt P80075 24-99, looked up, also called MCP-2) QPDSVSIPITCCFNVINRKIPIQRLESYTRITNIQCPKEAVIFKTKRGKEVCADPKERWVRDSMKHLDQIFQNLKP ?
**A:** 7.52
